assay-summary: in vitro
study-conditions: dog, Cytotoxicity (pCC50) MDCK
We begin with a simple list: items and their reported CC50.
endpoint: CC50 (µM)

compound: COC(=O)C(c1ccccc1)N1CCN(C(=O)c2cccc(-c3nc4cc(OC(F)(F)F)ccc4o3)c2)CC1 (centres unmarked)
endpoint: CC50
result-units: µM
reported-relation: >
value-observed: 50.1
--
compound: COC(=O)[C@@H](c1ccccc1)N1CCN(C(=O)c2cccc(-c3nc4ccccc4s3)c2)CC1
endpoint: CC50
result-units: µM
reported-relation: =
value-observed: 39.8
--
compound: COc1ccc2nc(-c3cccc(C(=O)N4CCN(C(c5ccccc5)c5nnc(C)o5)CC4)c3)sc2c1 (centres unmarked)
endpoint: CC50
result-units: µM
reported-relation: >
value-observed: 50.1
--
compound: COc1ccc2nc(-c3cccc(C(=O)N4CCN(C(C(=O)NCCCN)c5ccccc5)CC4)c3)sc2c1 (centres unmarked)
endpoint: CC50
result-units: µM
reported-relation: >
value-observed: 50.1
--
compound: Cc1nnc(C(c2ccccc2)N2CCN(C(=O)c3cccc(-c4nc5cc(N(C)C)ccc5o4)c3)CC2)o1 (centres unmarked)
endpoint: CC50
result-units: µM
reported-relation: =
value-observed: 25.1
--
compound: COCCNC(=O)C(c1ccccc1)N1CCN(C(=O)c2cccc(-c3nc4ccc(OC)cc4s3)c2)CC1 (centres unmarked)
endpoint: CC50
result-units: µM
reported-relation: =
value-observed: 10
--
compound: Cc1nnc([C@@H](c2ccccc2)N2CCN(C(=O)c3cccc(-c4nc5c(C)cccc5o4)c3)CC2)o1
endpoint: CC50
result-units: µM
reported-relation: =
value-observed: 15.8
--
compound: Cc1nnc([C@@H](c2ccccc2)N2CCN(C(=O)c3cc(F)cc(-c4nc5cc(C(F)(F)F)ccc5o4)c3)CC2)o1
endpoint: CC50
result-units: µM
reported-relation: >
value-observed: 50.1
--
compound: Cc1nnc([C@@H](c2ccccc2)N2CCN(C(=O)c3cc(-c4nc5cc(C(F)(F)F)ccc5o4)ccc3F)CC2)o1
endpoint: CC50
result-units: µM
reported-relation: >
value-observed: 50.1
--
compound: COc1ccc2nc(-c3cccc(C(=O)N4CCN(C(c5ccccc5)c5nnco5)CC4)c3)sc2c1 (centres unmarked)
endpoint: CC50
result-units: µM
reported-relation: >
value-observed: 50.1
--
compound: COC(=O)C(c1ccccc1)N1CCN(C(=O)c2cccc(-c3nc4cc(OC)ccc4o3)c2)CC1 (centres unmarked)
endpoint: CC50
result-units: µM
reported-relation: =
value-observed: 50.1
--
compound: COC(=O)[C@H](c1ccccc1)N1CCN(C(=O)c2cccc(-c3nc4cc(C(F)(F)F)ccc4o3)c2)[C@H](C(N)=O)C1
endpoint: CC50
result-units: µM
reported-relation: =
value-observed: 39.8
--
compound: COC(=O)[C@@H](c1ccccc1)N1CCN(C(=O)c2cccc(-c3nc4cc(C(F)(F)F)ccc4o3)c2)[C@H](C(N)=O)C1
endpoint: CC50
result-units: µM
reported-relation: >
value-observed: 50.1
--
compound: CC(=O)Nc1ccc2oc(-c3ccnc(C(=O)N4CCN(C(c5ccccc5)c5n[nH]c(C)n5)CC4)c3)nc2c1 (centres unmarked)
endpoint: CC50
result-units: µM
reported-relation: >
value-observed: 50.1
